- System: EKVX NSCLC
- METHOD: NCI tumour cell line growth inhibition, 48 h
RECORDED_METRIC: TGI

Recorded results for 2 compounds are shown here.
>>> measured("CCc1nc(N)nc(N)c1-c1ccc(Cl)c(N=CN(C)C)c1")
"> 100 µM"
>>> measured("CCN(CC)CCSCCCNc1c2ccc(Cl)cc2nc2ccc(OC)cc12")
"4.72 µM"

Problem: Specify the recorded TGI for `COc1ccc(Nc2c3ccccc3nc3[nH]c4ccccc4c23)cc1` , system: EKVX NSCLC.
Solution: > 50 µM

Problem: Specify the recorded TGI for CC(C)(C)C1CCC2c3c([nH]c4ccccc34)C3C(=O)N(c4ccc5c(c4)C(=O)c4ccccc4C5=O)C(=O)C3C2C1 (stereo unspecified) , system: EKVX NSCLC.
Solution: > 100 µM

Problem: Specify the recorded TGI for CC1=CC(=O)N(c2c(C)cccc2Cl)C(C)N1 (stereo unspecified) , system: EKVX NSCLC.
Solution: > 100 µM

Problem: Specify the recorded TGI for `NCc1cc(O)c(O)c(O)c1` , system: EKVX NSCLC.
Solution: > 100 µM

====

The entries below are paired with their reported log10 of TGI.
- Tested on: MDA-MB-435
- METHOD: NCI tumour cell line growth inhibition, 48 h
Response schema: value (number) is log10 of TGI in units of µM.

>>> measured("COc1ccc(Nc2cc(C)nc(N3CCN(c4ccnc5cc(Cl)ccc45)CC3)n2)cc1")
0.81
>>> measured("CCOP(=O)(OCC)/C(C#N)=C/c1ccnc2ccccc12")
1.50
>>> measured("COc1cc(C(=O)Oc2c(C#N)sc3c2c(=O)n(-c2ccccc2)c(=S)n3-c2ccccc2)cc(OC)c1OC")
1.57

Problem: For the molecule `Cc1cccc2c(N)c3ccccc3nc12` , give its measured log10 of TGI value.
Solution: 0.66

Problem: For the molecule `O=C1NCCS(=O)(=O)/C1=C\C=C\c1cccc(C(F)(F)F)c1` , give its measured log10 of TGI value.
Solution: 0.81

Problem: For the molecule CC(=O)O[C@@H](C1C[C@@H](C)[C@H]2[C@@](O)(O1)[C@H](O)[C@@]1(C)C3=CC[C@H]4C(C)(C)[C@@H](OC5OCC(O)C(O)C5O)CC[C@@]45C[C@@]35CC[C@]21C)C(C)(C)O (stereo partly drawn) , give its measured log10 of TGI value.
Solution: 1.73

Problem: For the molecule CC1=C(C(=O)OC(C)C)C(c2ccccc2C(F)(F)F)C(C(=O)OC(CO[N+](=O)[O-])CO[N+](=O)[O-])=C(C)N1 (stereo not drawn) , give its measured log10 of TGI value.
Solution: 1.44

Problem: For the molecule `c1ccc(CNc2nc(Nc3ccccc3)nc3ccccc23)cc1` , give its measured log10 of TGI value.
Solution: 0.56

Problem: For the molecule `Oc1ccc(Cl)cc1CNc1nc2ccccc2[nH]1` , give its measured log10 of TGI value.
Solution: 1.42

====

- System: PC-3 prostate
- METHOD: NCI tumour cell line growth inhibition, 48 h
The entries below are paired with their reported TGI.

Recorded results for 3 compounds are shown here.
>>> measured("N#CCCN(CCN(CCC#N)C(=O)Nc1ccccc1)C(=O)Nc1ccccc1")
"> 100 µM"
>>> measured("Cn1c(=O)c(Oc2ccc(F)cc2F)cc2cnc(NCCS(C)(=O)=O)nc21")
"> 25 µM"
>>> measured("CNC(=O)OCC1C2=C(C(=O)C(C)=C(N)C2=O)N2CC3C(N3C)C12OC (centres undefined)")
"64.7 µM"

Here's the next entry for you.
Problem: For the compound CC#CC(O)(C(=O)OC1CC2CCC(C1)N2C)C1CCCC1 (centres undefined) , give its measured TGI value.
Solution: > 100 µM

====

The entries below are paired with their reported TGI.
- Tested on: LXFL 529 NSCLC
- METHOD: NCI tumour cell line growth inhibition, 48 h

Problem: For the compound `[Cl][Cd][Cl]` , give its measured TGI value.
Solution: 28.4 µM

Problem: For the compound COC(=O)C1=CC2OC1(C)CCC2=O (stereo not drawn) , give its measured TGI value.
Solution: > 100 µM

Problem: For the compound `CCOC(=O)c1c(C)c(C)n2c1NC(=O)C2` , give its measured TGI value.
Solution: > 100 µM

====

The entries below are paired with their reported TGI.
- Tested on: NCI-H460 lung
- METHOD: NCI tumour cell line growth inhibition, 48 h

>>> measured("Cc1ccccc1-n1c(C)nc(-c2ccccc2)cc1=O")
"> 100 µM"
>>> measured("Cn1c(=O)c(Oc2ccc(F)cc2F)cc2cnc(NCCS(C)(=O)=O)nc21")
"> 25 µM"
>>> measured("COc1ccc(CCc2nccn2C)cc1OC")
"> 100 µM"
>>> measured("CC#CC(O)(C(=O)OC1CC2CCC(C1)N2C)C1CCCC1 (stereo unspecified)")
"> 100 µM"
>>> measured("CC(=O)C1=CCC2c3[nH]c4ccccc4c3CCN2C1 (stereo unspecified)")
"> 100 µM"

Problem: Specify the recorded TGI for `COc1cc2c(cc1OC)C(=O)N(NC1=NCCN1)C2=O` , system: NCI-H460 lung.
Solution: > 100 µM

Problem: Specify the recorded TGI for `CN1CC(=O)N(C)c2nc[nH]c2C1=O` , system: NCI-H460 lung.
Solution: > 100 µM

Problem: Specify the recorded TGI for `COc1cc(/C=C/C(=O)c2cccnc2Nc2ccc(F)cc2)cc(OC)c1OC` , system: NCI-H460 lung.
Solution: 10.1 µM

Problem: Specify the recorded TGI for `O=C(Nc1ccc(I)cc1F)c1cc(Cl)ccc1O` , system: NCI-H460 lung.
Solution: > 26.9 µM

Problem: Specify the recorded TGI for `Cc1nc2c(=O)n3c4c(cccc4c2o1)CCC3` , system: NCI-H460 lung.
Solution: > 100 µM

Problem: Specify the recorded TGI for `COc1cc(C(=O)Oc2c(C#N)sc3c2c(=O)n(-c2ccccc2)c(=S)n3-c2ccccc2)cc(OC)c1OC` , system: NCI-H460 lung.
Solution: 68.1 µM

Problem: Specify the recorded TGI for `Cn1c2ccccc2c(=O)c2[nH]c3ccccc3c21` , system: NCI-H460 lung.
Solution: > 100 µM

Problem: Specify the recorded TGI for `C/C(=N\Nc1nc2ccccc2s1)c1cc(C)ncn1` , system: NCI-H460 lung.
Solution: 9.16 µM

Problem: Specify the recorded TGI for `Cc1cc(OCc2nnc3n2N=C(c2ccc(Cl)cc2Cl)CS3)ccc1Cl` , system: NCI-H460 lung.
Solution: > 100 µM

Problem: Specify the recorded TGI for `NCc1cc(O)c(O)c(O)c1` , system: NCI-H460 lung.
Solution: > 100 µM

====

- System: U251 CNS
- METHOD: NCI tumour cell line growth inhibition, 48 h
The entries below are paired with their reported TGI.

Recorded results for 3 molecules are shown here.
>>> measured("NCc1cc(O)c(O)c(O)c1")
"> 100 µM"
>>> measured("CCOC(=O)c1c(N2CCCC2)[nH]c(=O)c(C(c2cccs2)c2c(O)c(C(=O)OCC)c(N3CCCC3)[nH]c2=O)c1O")
"> 100 µM"
>>> measured("c1ccc2cc3c(cc2c1)nc1ccccn13")
"> 100 µM"

Problem: For the molecule O=C1NC(=O)C2C1N(Cc1ccccc1)C(=O)N2Cc1ccccc1 (stereo unspecified) , give its measured TGI value.
Solution: > 100 µM

Problem: For the molecule `C=CCN1CN(c2ccccc2)C2(CCN(CCCC3(c4ccc(F)cc4)OCCO3)CC2)C1=O` , give its measured TGI value.
Solution: 29.4 µM

Problem: For the molecule `OC(C/C=N/Nc1ccccc1)(C(F)(F)Cl)C(F)(F)Cl` , give its measured TGI value.
Solution: > 10 µM

Problem: For the molecule `Cc1c(Sc2ccccc2)[n+](=O)c2cc(Cl)c(Cl)cc2n1[O-]` , give its measured TGI value.
Solution: > 100 µM

Problem: For the molecule `O=C(N/N=C\C(F)(F)F)c1ccncc1` , give its measured TGI value.
Solution: > 100 µM

====

- Tested on: NCI-H226 lung
RECORDED_METRIC: GI50

Problem: Specify the recorded GI50 for `O=C(Nc1ccc(I)cc1F)c1cc(Cl)ccc1O` , system: NCI-H226 lung.
Solution: 1170 nM

Problem: Specify the recorded GI50 for `COc1cc(/C=C/C(=O)c2cccnc2Nc2ccc(F)cc2)cc(OC)c1OC` , system: NCI-H226 lung.
Solution: 1790 nM

Problem: Specify the recorded GI50 for `CC(=O)Oc1ccc(C(c2ccc(OC(C)=O)cc2)c2ccccn2)cc1` , system: NCI-H226 lung.
Solution: 40200 nM

Problem: Specify the recorded GI50 for `c1ccc(CNc2nc(Nc3ccccc3)nc3ccccc23)cc1` , system: NCI-H226 lung.
Solution: 2260 nM

Problem: Specify the recorded GI50 for `OCCN1CCN(CC/C=C2\c3ccccc3Sc3ccc(Cl)cc32)CC1` , system: NCI-H226 lung.
Solution: 6930 nM

Problem: Specify the recorded GI50 for `Cc1c(Sc2ccccc2)[n+](=O)c2cc(Cl)c(Cl)cc2n1[O-]` , system: NCI-H226 lung.
Solution: > 100000 nM
